Hello, the source for this data is patent US9120766B2, in case you need it.

experimental details: Solubility estimates at ambient temperature (gravimetric or incremental solvent addition)
condition notes: ACN, organic solvent or mixture, thermodynamic from solid, solvent ACN, ambient temperature
endpoint label: solubility

Exam item: Param item = COc1cc(/C=C/c2ccc(O)cc2)cc(OC)c1 ; retrieve measured solubility.
Marked response: > 203 mg/mL

* * *

experimental details: Solubility estimates at ambient temperature (gravimetric or incremental solvent addition)
condition notes: heptane, organic solvent or mixture, thermodynamic from solid, solvent Heptane, ambient temperature
endpoint label: solubility

Exam item: solubility for COc1cc(/C=C/c2ccc(O)cc2)cc(OC)c1 ?
Marked response: < 2000 µg/mL

* * *

experimental details: Solubility estimates at ambient temperature (gravimetric or incremental solvent addition)
condition notes: isopropyl alcohol (IPA), organic solvent or mixture, thermodynamic from solid, solvent IPA (isopropyl alcohol), ambient temperature
endpoint label: solubility (mg/mL)
Field format: number, assumed mg/mL, no unit text.

Exam item: Query (compound): COc1cc(/C=C/c2ccc(O)cc2)cc(OC)c1 ; field requested: solubility
Marked response: 399
